test system: MDA-MB-468; test: normalised response (% of control), CellTiter-Glo; higher = more viable cells (100 = DMSO, 0 = benzethonium chloride kill control); conditions: incubation time: 72 h
Assign T to entries whose normalised response meets or exceeds 80%; assign F to the rest.

Use the examples below as a reference point.
Cn1cnc2c(F)c(Nc3ccc(Br)cc3F)c(C(=O)NOCCO)cc21 [MEK-162] (1 nM) :: T
CCOc1cc2ncc(C#N)c(Nc3ccc(OCc4ccccn4)c(Cl)c3)c2cc1NC(=O)/C=C/CN(C)C [Neratinib] (0.1 nM) :: T
CN(c1ccccc1CNc1nc(Nc2ccc3c(c2)CC(=O)N3)ncc1C(F)(F)F)S(C)(=O)=O (1000 nM) :: F
COc1cccc2c1C(=O)c1c(O)c3c(c(O)c1C2=O)C[C@@](O)(C(C)=O)C[C@@H]3O[C@H]1C[C@H](N)[C@H](O)[C@H](C)O1 [Daunorubicin] (1 nM) :: T
COc1cc(Nc2ncc(F)c(Nc3ccc4c(n3)NC(=O)C(C)(C)O4)n2)cc(OC)c1OC [Tamatinib] (10 nM) :: T
COC1=CC(c2cc3ccccc3[nH]2)=N/C1=C\c1[nH]c(C)cc1C [Obatoclax] (1000 nM) :: T
CC(C)C[C@H](NC(=O)[C@H](Cc1ccccc1)NC(=O)c1cnccn1)B(O)O [Bortezomib] (1 nM) :: T
CC(=O)O[C@H]1C(=O)[C@@]2(C)[C@H]([C@H](OC(=O)c3ccccc3)[C@]3(O)C[C@H](OC(=O)[C@H](O)[C@@H](NC(=O)c4ccccc4)c4ccccc4)C(C)=C1C3(C)C)[C@]1(OC(C)=O)CO[C@@H]1C[C@@H]2O [Paclitaxel] (0.1 nM) :: T

Now look at this one.
Prompt: Does the reported normalised response for CCS(=O)(=O)c1cccc(-c2cc(C(=O)NC3CCN(C)CC3)c(C)c3[nH]c4ncc(C)cc4c23)c1 [TAK-901] (100 nM) fall at or above the 80% mark?
Completion: F

---

test system: HCC1599; experiment: drug sensitivity score (DSS), CellTiter-Blue viability (DSS (AUC-based score)); higher = stronger viability inhibition; extreme values may be limits of the assay; conditions: incubation time: 72 h
If the reported drug sensitivity score equals or exceeds 10, assign yes. If not, assign no.

Solved entries (count: 2):
COC1=CC(c2cc3ccccc3[nH]2)=N/C1=C\c1[nH]c(C)cc1C [Obatoclax] :: no
COc1cccc2c1C(=O)c1c(O)c3c(c(O)c1C2=O)C[C@@](O)(C(C)=O)C[C@@H]3O[C@H]1C[C@H](N)[C@H](O)[C@H](C)O1 [Daunorubicin] :: no

Prompt: Quick check: does CC(C)C[C@H](NC(=O)[C@H](Cc1ccccc1)NC(=O)c1cnccn1)B(O)O [Bortezomib] have drug sensitivity score greater than or equal to 10?
Completion: no

Prompt: Entry COC(=O)C[C@](O)(CCCC(C)(C)O)C(=O)O[C@@H]1C(OC)=C[C@]23CCCN2CCc2cc4c(cc2[C@H]13)OCO4 [Omacetaxine] : is its drug sensitivity score no less than 10?
Completion: yes

Prompt: Does drug sensitivity score meet or surpass 10 for C[C@@]1(C(=O)Nc2ccc(F)nc2)CCCN1c1nc(Nc2cc(C3CC3)n[nH]2)c2cccn2n1 ?
Completion: yes

---

system: CAL-148; assay: normalised response (% of control), CellTox Green; higher = less cell death (100 = DMSO, 0 = benzethonium chloride kill control); conditions: incubation time: 72 h
# normalised response values compiled below
Give the value in % but do not write % after it.

# count of solved cases: 6
CN(c1ccccc1CNc1nc(Nc2ccc3c(c2)CC(=O)N3)ncc1C(F)(F)F)S(C)(=O)=O (100 nM) :: 99.2
O=C(c1ccc(OCCN2CCCCC2)cc1)c1c(-c2ccc(O)cc2)sc2cc(O)ccc12 [Raloxifene] (1000 nM) :: 92
C[C@@H]1CCN(C(=O)CC#N)C[C@@H]1N(C)c1ncnc2[nH]ccc12 [Tofacitinib] (500 nM) :: 108
C[C@@]1(C(=O)Nc2ccc(F)nc2)CCCN1c1nc(Nc2cc(C3CC3)n[nH]2)c2cccn2n1 (10000 nM) :: 59.1
CS(=O)(=O)OCCCCOS(C)(=O)=O [Busulfan] (1000 nM) :: 96.1
COc1cc(Nc2ncc(F)c(Nc3ccc4c(n3)NC(=O)C(C)(C)O4)n2)cc(OC)c1OC [Tamatinib] (1000 nM) :: 102

// normalised response lookup, molecule = COC(=O)C[C@](O)(CCCC(C)(C)O)C(=O)O[C@@H]1C(OC)=C[C@]23CCCN2CCc2cc4c(cc2[C@H]13)OCO4 [Omacetaxine] (100 nM) , result: 83.4
